Biological target: POSH (Homo sapiens)
Construct: GST-POSH lot NB81/p.118 3.6 mg/ml; fused on or other part: GST tag, used for detection with anti-GST XL665
Sequence (Q7Z6J0 1-269 limits assumed): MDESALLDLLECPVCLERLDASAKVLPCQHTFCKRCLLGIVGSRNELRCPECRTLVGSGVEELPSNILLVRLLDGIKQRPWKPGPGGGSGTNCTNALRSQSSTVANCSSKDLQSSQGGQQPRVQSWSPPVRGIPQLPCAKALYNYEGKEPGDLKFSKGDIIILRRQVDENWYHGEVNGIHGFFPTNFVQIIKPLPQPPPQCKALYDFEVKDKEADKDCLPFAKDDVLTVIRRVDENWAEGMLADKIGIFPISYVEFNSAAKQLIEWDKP
Experiment: Selectivity (% A in 1 μM), ubiquitin ligase activity of POSH
Format: biochemical
Settings: % activity at 1 μM compound; control is related to 100% activity; HTS protocol; read-out: Selectivity (% A* in 1 μM) POSH
Reported property: remaining activity at 1 µM

> print(dat)
                                   compound           reported.property  recorded.measurement
1           Cc1ccc(/C=N/c2ccc(C(N)=O)cc2)o1  remaining activity at 1 µM                   16%
2    O=C1N=C(c2ccccc2)S/C1=C/c1ccc2ccccc2c1  remaining activity at 1 µM                   17%
3  O=C1CC(NNc2ccccc2)C(=O)N1c1cccc(Cl)c1 (centres unmarked)  remaining activity at 1 µM                   26%
4               Cc1cc(I)ccc1NCn1nnc2ccccc21  remaining activity at 1 µM                   28%
5  O=C1/C(=C\c2ccc(Cl)c([N+](=O)[O-])c2)Sc2ccccc21  remaining activity at 1 µM                   39%
